# experimentalProtocol: PK after subcutaneous administration of solutions in dogs
# Assay type: in vivo, Beagle dog
# assayContext: Beagle, dog, plasma, sc, 6 mg/kg, dog; SC 6 mg/kg; 150 mg/mL solution (w/w %: 26.6 water, 56.97 PEG 300, 13.39 Formula (Ia), 0.57 NaOH, 2.49 poloxamer 188); mean ± SD, n=3
measurementName: Cmax

{"smilesString": "CC(C)(C#Cc1ccc(-c2ccc(Cl)c3c(NS(C)(=O)=O)nn(CC(F)(F)F)c23)c([C@H](Cc2cc(F)cc(F)c2)NC(=O)Cn2nc(C(F)(F)F)c3c2C(F)(F)[C@@H]2C[C@H]32)n1)S(C)(=O)=O", "testValue": "101 nM"}

---

# experimentalProtocol: PK after subcutaneous administration of solutions in rats
# Assay type: in vivo, Wistar Han rat
# assayContext: Wistar Han, rat, plasma, sc, 50 mg/kg, rat; SC 50 mg/kg; 300 mg/mL solution (w/w %: 23.2 water, 50.0 PEG 300, 25.7 Formula (Ia), 1.1 NaOH); mean ± SD, n=3
# Description: Formulations containing the compound of Formula (Ia) were prepared as aqueous solutions or oral formulations and administered subcutaneously to rats, dogs, cynomolgus monkey, and/or rhesus monkey. A solution of the compound of Formula (Ia) in 10% ethanol, 13% water, and 77% PEG 200 (400 mg/mL) was prepared. The solution was administered subcutaneously to dogs at a dose of 12 mg/kg and rats at a dose of 50 mg/kg and the pharmacokinetic (PK) profile was determined. […]

{"compound": "CC(C)(C#Cc1ccc(-c2ccc(Cl)c3c(NS(C)(=O)=O)nn(CC(F)(F)F)c23)c([C@H](Cc2cc(F)cc(F)c2)NC(=O)Cn2nc(C(F)(F)F)c3c2C(F)(F)[C@@H]2C[C@H]32)n1)S(C)(=O)=O [Formula (Ia)]", "unitInfo": "nM", "Cmax": 355}

---

# experimentalProtocol: PK after subcutaneous administration of solutions in dogs
# Format: in vivo, Beagle dog
# assayContext: beagle, dog, plasma, sc, 12 mg/kg, dog; SC 12 mg/kg; 300 mg/mL solution (w/w %: 9.8 water, 65.0 PEG 300, 25.2 Formula (Ia)); mean ± SD, n=3; read-out: AUC0-126d

{"smilesString": "CC(C)(C#Cc1ccc(-c2ccc(Cl)c3c(NS(C)(=O)=O)nn(CC(F)(F)F)c23)c([C@H](Cc2cc(F)cc(F)c2)NC(=O)Cn2nc(C(F)(F)F)c3c2C(F)(F)[C@@H]2C[C@H]32)n1)S(C)(=O)=O", "unitInfo": "µM·h", "AUC(0-t)": 139}

---

# experimentalProtocol: PK after subcutaneous administration of solutions in rats
# Assay type: in vivo, Wistar Han rat
# assayContext: Wistar Han, rat, plasma, sc, 50 mg/kg, rat; SC 50 mg/kg; 50 mg/mL solution (w/w %: 30.07 water, 64.40 PEG 300, 4.68 sodium salt of Formula (Ia), 0.85 poloxamer 188); mean ± SD, n=3; read-out: C28d
measurementName: concentration at 28 d (nM)

{"compound": "CC(C)(C#Cc1ccc(-c2ccc(Cl)c3c(NS(C)(=O)=O)nn(CC(F)(F)F)c23)c([C@H](Cc2cc(F)cc(F)c2)NC(=O)Cn2nc(C(F)(F)F)c3c2C(F)(F)[C@@H]2C[C@H]32)n1)S(C)(=O)=O [Formula (Ia)]", "testValue": 82}
